Reference source for all entries: the Human Domainome abundance scans (Beltran et al. 2025)

# abundance fitness listing for each entry below
B1: POU domain, class 3, transcription factor 1, residues 247 to 324; numbered along this chain, Q03052 (parent)
chain: EDAPSSDDLEQFAKQFKQRRIKLGFTQADVGLALGTLYGNVFSQTTICRFEALQLSFKNMCKLKPLLNKWLEETDSSS

Variants of: B1
Experimental details: abundance fitness (aPCA) (normalised: wild type 0, dead -1); higher = more abundant; growth selection in yeast, the domain comes from the species named
Experimental context: Homo sapiens
Recorded endpoint: abundance fitness

• EDAPSSDDLEQFAKQFKQRRIKLGFTQADVGLALGTLYGNVFSQTTICRREALQLSFKNMCKLKPLLNKWLEETDSSS [F50R] = -0.785
• EDAPSSDDLEQFAKQFKQRRIKLGFTQADVGLALGTLYGNVFSQTTICRFEALQLSFKNMCKPKPLLNKWLEETDSSS [L63P] = -0.769
• EDAPSSDDLEQFAKQFKQRRIKLGFTQADVGLALGTLYHNVFSQTTICRFEALQLSFKNMCKLKPLLNKWLEETDSSS [G39H] = 0.144
• EDAPSSDDLEQFAKQFKQRRIKLGFTQADVGLALGTLYGNVFSQTTICRFEALQLSFKNMCKLKPLLNKWLEETDSGS [S77G] = 0.159
• EDAPSSDDLEQFAKQFKQRRIKLGFTQADVGLALGTLYGNVFSQTTICRFEALQLSQKNMCKLKPLLNKWLEETDSSS [F57Q] = 0.015
• EDAPSSDDLEQFAKQFKQRRIKLGFTQADVGLALGTLYGGVFSQTTICRFEALQLSFKNMCKLKPLLNKWLEETDSSS [N40G] = 0.008
• EDAPSSDDLEQFAKQFKQRHIKLGFTQADVGLALGTLYGNVFSQTTICRFEALQLSFKNMCKLKPLLNKWLEETDSSS [R20H] = -0.508
• EDAPSSDDLEQFAKQFKQRRIKLGLTQADVGLALGTLYGNVFSQTTICRFEALQLSFKNMCKLKPLLNKWLEETDSSS [F25L] = -0.12
• EDAPSSDDLEQFAKQFKQRRIKLGFAQADVGLALGTLYGNVFSQTTICRFEALQLSFKNMCKLKPLLNKWLEETDSSS [T26A] = -0.497
• EDAPSSDDLEQFAKQFKQRRIKLGFTQADVGLALGVLYGNVFSQTTICRFEALQLSFKNMCKLKPLLNKWLEETDSSS [T36V] = -0.36
• EDAPSSDDLEQFAKQFKQRRIKLGFTQADEGLALGTLYGNVFSQTTICRFEALQLSFKNMCKLKPLLNKWLEETDSSS [V30E] = -0.601
• EDAPSSDDLEQFAKQFKQRRIKLGFTQADVGLALGTLYGNYFSQTTICRFEALQLSFKNMCKLKPLLNKWLEETDSSS [V41Y] = -0.079
• EDAPSSDDLEQFAKQFKQRRIKLGFTQADVGLALGTLYGNVFSQTTIWRFEALQLSFKNMCKLKPLLNKWLEETDSSS [C48W] = -0.37
• EDAPSSDDLEQFAKQFKQRRIKLGFTQADVGLALGTLYGNVFSQTTICRFEALQLSFKNMPKLKPLLNKWLEETDSSS [C61P] = -0.988
• EDAPSSDDLEQFAKQFKQRRIKLGFTQGDVGLALGTLYGNVFSQTTICRFEALQLSFKNMCKLKPLLNKWLEETDSSS [A28G] = -0.083
• EDAPSSDDLEQFAKQFKQRRIKLGFTQADVGLALGTLYGNVFSQTTICRFEALQLSFKNMCMLKPLLNKWLEETDSSS [K62M] = -0.075
• EDAPSSDDLEQFAKQFKQRRIKLGFTQADVGLALGTLYGNVFSQTTICRFEALQLSFKNMCKLKPLLNKWGEETDSSS [L71G] = -0.851
• EDAPSSDDLEQFAKQFKQRRIKLGFTQADVGLALGTLYGNVFSQTTICRFEALQLSFKCMCKLKPLLNKWLEETDSSS [N59C] = -0.198
• EDAPSSDDLEQFAKQFKQRRIKLGFTQADVGLALGTLYGNVFSQTTICRFESLQLSFKNMCKLKPLLNKWLEETDSSS [A52S] = 0.036
• EDAPSSDDLEQFAKQFKQRRIKLGFTQADVGLALGTLYGNVFSQTTICRFEALPLSFKNMCKLKPLLNKWLEETDSSS [Q54P] = -0.62
• EDAPSSDDLEQFAKQFKQRRIKLGFTQADVGLALGTLYGNVFSQTTICRFEALQLSFKNMCKLKPLLNKWLEETDASS [S76A] = -0.096
• EDAPSSDDLEQFAKQFKQRRCKLGFTQADVGLALGTLYGNVFSQTTICRFEALQLSFKNMCKLKPLLNKWLEETDSSS [I21C] = -0.521
• EDAPSSDDLEQFAKQFKQRRIKLGFTQADVGLALGTLYGNVFSQTTCCRFEALQLSFKNMCKLKPLLNKWLEETDSSS [I47C] = -0.294
• EDAPSSDDLEQFAKQFKQRRIKLGFTQADVGLALGTLYGNVFSQTTICRFEALQLSPKNMCKLKPLLNKWLEETDSSS [F57P] = -0.014
• EDAPSSDDLEQFAKQFKQRRIKLGFTQADVGLALGTLYGNVFSQTTICRFEALQLSFKNMCKLKPLLLKWLEETDSSS [N68L] = 0.038
• EDAPSSDDLEQFAKQFKQRRIKLGFTQADVGLALGTLYGNVFSQTTICRFEATQLSFKNMCKLKPLLNKWLEETDSSS [L53T] = -0.336
• EDAPSSDDLEQFAKQFKQRRIKLGFTQADVGLALGTLYGNVFSQTTICRFEALQLSFKNMCKLKKLLNKWLEETDSSS [P65K] = -0.156
• EDAPSSDDLEQFAKQFKQRRIKLGFTQADVGLALGTLYGNVFSQTTITRFEALQLSFKNMCKLKPLLNKWLEETDSSS [C48T] = -0.086
• EDAPSSDDLEQFAKQFKQRRIKLGFTQADVGLALGTLYGNVFSQTTICRFEKLQLSFKNMCKLKPLLNKWLEETDSSS [A52K] = 0.163
• EDAPSSDDLEQFAKQFKQRRIKLGFTQADVSLALGTLYGNVFSQTTICRFEALQLSFKNMCKLKPLLNKWLEETDSSS [G31S] = 0.04
• EDAPSSDDLEQFAKQFKQRRIKLGFTQADVGLALGTLYGNVFSQTTICRFEALQLSHKNMCKLKPLLNKWLEETDSSS [F57H] = 0.031
• EDAPSSDDLEQFAKQFKQRRIKLGFTQADVGLALGTLYGNVFSQTTICRFTALQLSFKNMCKLKPLLNKWLEETDSSS [E51T] = -0.668
• EDAPSSDDLEQFAKQFKQRRIKLGFTQADVGLALGTLYGNVFTQTTICRFEALQLSFKNMCKLKPLLNKWLEETDSSS [S43T] = -0.04
• EDAPSSDDLEQFAKQFKQRRIKLGFTRADVGLALGTLYGNVFSQTTICRFEALQLSFKNMCKLKPLLNKWLEETDSSS [Q27R] = -0.49
• EDAPSSDDLEQFAKQFKQRRIKLGFTQADVGLALGMLYGNVFSQTTICRFEALQLSFKNMCKLKPLLNKWLEETDSSS [T36M] = 0.02
• EDAPSSDDLEQFAKQFKQRRIKLGFTQADVGLALGTLYGNVFSQTTICRFEALQLSFKNMCKLKPLLNKWLEEFDSSS [T74F] = 0.453
• EDAPSSDDLEQFAKQFKQRRIKLGFTQADVGLALGTLYGNVFSQTTICRFEALQLSFKNMCKLKPLLNKWLEETDSKS [S77K] = 0.096
• EDAPSSDDLEQFAKQFKQRRIKLPFTQADVGLALGTLYGNVFSQTTICRFEALQLSFKNMCKLKPLLNKWLEETDSSS [G24P] = -0.73
• EDAPSSDDLEQFAKQFKQRAIKLGFTQADVGLALGTLYGNVFSQTTICRFEALQLSFKNMCKLKPLLNKWLEETDSSS [R20A] = -0.653
• EDAPSSDDLEQFAKQFKQRRIKLGFTQADVGLALGTLYGNVFSQTTICRFEALQLSFKNMCKLKPLLFKWLEETDSSS [N68F] = -0.175
• EDAPSSDDLEQFAKQFKQRRIKLGFTQADVGLALGTLYGNVFSQLTICRFEALQLSFKNMCKLKPLLNKWLEETDSSS [T45L] = -0.102
• EDAPSSDDLEQFAKQFKQRRIKLGFTQADVGLALGTLYGNVFSQTTICRFEALQLSFKNMCKLKPLLNKWLEETDSST [S78T] = 0.087
• EDAPSSDDLEQFAKQFKQRRIKLGFTQADVGLALGTLYGNVFYQTTICRFEALQLSFKNMCKLKPLLNKWLEETDSSS [S43Y] = -0.389
• EDAPSSDDLEQFAKQFKQRRIKLGFTQADVGLALGTLYGNVFSQTTICRFEALQLSFKNMCKNKPLLNKWLEETDSSS [L63N] = -0.117
• EDAPSSDDLEQFAKQFKQRRIKLNFTQADVGLALGTLYGNVFSQTTICRFEALQLSFKNMCKLKPLLNKWLEETDSSS [G24N] = -0.587
• EDAPSSDDLEQFAKQFKQRRIKLGFTQADVGLALGTLYGNHFSQTTICRFEALQLSFKNMCKLKPLLNKWLEETDSSS [V41H] = 0.253
• EDAPSSDDLEQFAKQFKQRRIKLGFTQADVGLALGTLYGNVFSQTTICRFEGLQLSFKNMCKLKPLLNKWLEETDSSS [A52G] = -0.156
• EDAPSSDDLEQFAKQFKQRRIKLGFTQADVGLALGTLYGNVFSQTTECRFEALQLSFKNMCKLKPLLNKWLEETDSSS [I47E] = -1.12
• EDAPSSDDLEQFAKQFKQRRIKLGFTQADVGLALGTLYGNVFSQTTICRFEALQLSFKNMCKLKPLLNKWLEEADSSS [T74A] = 0.12
• EDAPSSDDLEQFAKQFKQRRIKLGFTQADVGLALGTLYGNVFSQTTQCRFEALQLSFKNMCKLKPLLNKWLEETDSSS [I47Q] = -0.954
• EDAPSSDDLEQFAKQFKQRRIKLGFTQADVGLALGTLYGNVFSQTTIARFEALQLSFKNMCKLKPLLNKWLEETDSSS [C48A] = 0.129
• EDAPSSDDLEQFAKQFKQRRIKLGFTQADVGLALGTLYMNVFSQTTICRFEALQLSFKNMCKLKPLLNKWLEETDSSS [G39M] = -1.04
• EDAPSSDDLEQFAKQFKQRRIKLGFTQADVGLALGTLYGNVFSQTTICRFEALQLSFKNMCKLKPLLNKDLEETDSSS [W70D] = -0.485
• EDAPSSDDLEQFAKQFKQRRIKLGFTQADVGLALGTLYGNVFSQTTICRAEALQLSFKNMCKLKPLLNKWLEETDSSS [F50A] = -0.826
• EDAPSSDDLEQFAKQFKQRRIKLGFTQADVGRALGTLYGNVFSQTTICRFEALQLSFKNMCKLKPLLNKWLEETDSSS [L32R] = 0.122
• EDAPSSDDLEQFAKQFKQRRIKLGFTQADVGLALGTLYGNVFSQTTICRFEALQLSFKNECKLKPLLNKWLEETDSSS [M60E] = -0.948
• EDAPSSDDLEQFAKQFKQRRIKLGFTQADVGLATGTLYGNVFSQTTICRFEALQLSFKNMCKLKPLLNKWLEETDSSS [L34T] = -0.311
• EDAPSSDDLEQFAKQFKQRRIKLGFTQADVGLALGTLYGNVFRQTTICRFEALQLSFKNMCKLKPLLNKWLEETDSSS [S43R] = -0.329
• EDAPSSDDLEQFAKQFKQRRIKLGFTWADVGLALGTLYGNVFSQTTICRFEALQLSFKNMCKLKPLLNKWLEETDSSS [Q27W] = -0.209
• EDAPSSDDLEQFAKQFKQRRMKLGFTQADVGLALGTLYGNVFSQTTICRFEALQLSFKNMCKLKPLLNKWLEETDSSS [I21M] = -0.236
• EDAPSSDDLEQFAKQFKQRRIKLGFTQADVGLALGTLYGNVFSQTTICRFEALQLSFKNMCKLKPLLNKQLEETDSSS [W70Q] = -0.881
• EDAPSSDDLEQFAKQFKQRRIKLGFTQADVGLALGTLYGNVFSQTTICRFHALQLSFKNMCKLKPLLNKWLEETDSSS [E51H] = -0.98
• EDAPSSDDLEQFAKQFKQRRIKLGFTQADVGLALGTLYGNVFSQSTICRFEALQLSFKNMCKLKPLLNKWLEETDSSS [T45S] = -0.017
• EDAPSSDDLEQFAKQFKQRRIKFGFTQADVGLALGTLYGNVFSQTTICRFEALQLSFKNMCKLKPLLNKWLEETDSSS [L23F] = -0.219
• EDAPSSDDLEQFAKQFKQRRIKLGFTQADVGLALGTLYGNVFSQTTICRFEALQLSFKNMCKLKPLLNKWLEETDSQS [S77Q] = 0.106
• EDAPSSDDLEQFAKQFKQRRIKLGFTQADVGLALGTLYANVFSQTTICRFEALQLSFKNMCKLKPLLNKWLEETDSSS [G39A] = -0.365
• EDAPSSDDLEQFAKQFKQRRIKLGFTQADVGLALGTLYRNVFSQTTICRFEALQLSFKNMCKLKPLLNKWLEETDSSS [G39R] = -0.198
• EDAPSSDDLEQFAKQFKQRRIKLGFTQADVGLALGTLYGNVFSQTTICRFEALQLSFKNMCKLKPLLNKWLFETDSSS [E72F] = -0.493
• EDAPSSDDLEQFAKQFKQRRIKQGFTQADVGLALGTLYGNVFSQTTICRFEALQLSFKNMCKLKPLLNKWLEETDSSS [L23Q] = -0.31
• EDAPSSDDLEQFAKQFKQRRIKCGFTQADVGLALGTLYGNVFSQTTICRFEALQLSFKNMCKLKPLLNKWLEETDSSS [L23C] = -0.629
• EDAPSSDDLEQFAKQFKQRFIKLGFTQADVGLALGTLYGNVFSQTTICRFEALQLSFKNMCKLKPLLNKWLEETDSSS [R20F] = -0.353
• EDAPSSDDLEQFAKQFKQRRIKLGFTQADVGLALGTLYGNVFSQTTICRFEALQLSFKNMCKLKPLLNKGLEETDSSS [W70G] = -0.687
• EDAPSSDDLEQFAKQFKQRRIKLGFTQADMGLALGTLYGNVFSQTTICRFEALQLSFKNMCKLKPLLNKWLEETDSSS [V30M] = -0.65
• EDAPSSDDLEQFAKQFKQRRIKLGFTQADVGLALGTLYGNVFSQTTICRFEALQLSFKNMCKLKPLVNKWLEETDSSS [L67V] = -0.563
